system name: T1, human B7-H4 extracellular domain (human, UniProt Q7Z7D3 29-258);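 also: tested antibody premixed 1:1 with biotinylated parental antibody, 2 h at room temperature on coated ECD, bound biotin detected via streptavidin-HRP, absorbance read at 450 nm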
T1 construct: For SPR it says only human B7-H4 ECD; also called Hu B7-H4 ECD; huB7-H4 ECD
T1 sequence: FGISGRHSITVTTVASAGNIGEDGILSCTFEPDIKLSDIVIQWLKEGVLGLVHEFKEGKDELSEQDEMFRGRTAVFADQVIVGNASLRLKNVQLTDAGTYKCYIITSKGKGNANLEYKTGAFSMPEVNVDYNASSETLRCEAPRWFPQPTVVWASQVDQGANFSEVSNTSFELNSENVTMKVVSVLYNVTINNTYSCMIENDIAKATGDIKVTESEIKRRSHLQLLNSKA
measurement description: competition ELISA on coated huB7-H4 ECD; competitor biotinylated 0052 (by series, not given)
readout label: pIC50
Recall that pIC50 is obtained by taking minus log10 of the concentration measured in molar.

B7-H4 antibody 0546 (antibody, human IgG1, kappa, V domains shown) VH: EVQLVESGGGLVQPGGSLRLSCAVSGGSFSGYYWNWIRQPPGKGLEWIGEIDHQGSTKYNPSLKSRVTISVDTAKNSLYLQMNSLRAEDTAVYYCARELYNWNVDHWGQGTLVTVSS VL: DIQMTQSPSSLSASVGDRVTITCRASQGIRNDLGWYQQKPGKAPKRLIYAASSLQSGVPSRFSGSGSGTDFTLTISSLQPEDFATYYCLQHSSYPRTFGGGTKVEIKR; 7.37

Now, please, on to the next binder.
// field: pIC50; key: B7-H4 antibody 1083 (antibody, human IgG1, kappa, V domains shown) VH: EVQLVESGGGLVQPGGSLRLSCAASGGSFSGYYWNWIRQPPGKGLEWIGEINHSGSATYNPSLKSRVTISVDTAKNSFYLQMNSLRAEDTAVYYCARGLYNWNVDHWGQGTLVTVSS VL: DIQMTQSPSSLSASVGDRVTITCRASQGIRNDLGWYQQKPGKAPKRLIYAASSLQSGVPSRFSGSGSGTDFTLTISSLQPEDFATYYCLQHNAYPRTFGGGTKVEIKR ; value = 8.68
